# test.description: qHTS assay to identify small molecule agonists of the sonic hedgehog signaling (Shh) pathway - cell viability counter screen (AID 1259366); also: % is scaled to controls: 0 for no effect and ±100 for the full control effect; nearly all actives have a fitted effect of over 50% in size
# study.conditions: NIH/3T3 Gli1-Luc viability, CellTiter-Fluor, 24 h; series mostly up to 92.4 µM
Records with an inconclusive call do not appear. The source made the active and inactive calls. Calls follow the shape of the dose curve; as a rule, active = well fitted cell-killing curve with a large enough effect in the repeat runs; inconclusive = weak or mixed curves, or effect the other way; inactive = flat fitted curve, though single readings scatter.
quantity.kind: viability change, negative = cytotoxic

Consider the worked cases shown below.
compound	viability change, negative = cytotoxic
CCCCCCCCOCCC#N	inactive
CC/C=C\CCOC(=O)c1ccccc1	inactive
N=C(N)N	inactive
O=S(=O)(O)c1cc(I)c(O)c2ncccc12	inactive
CC(=O)OCC(=O)[C@@]1(O)CC[C@H]2[C@@H]3CCC4=CC(=O)C=C[C@]4(C)[C@H]3[C@@H](O)C[C@@]21C	inactive
CC(=O)Nc1ccc(OCCOCCOc2ccc(NC(C)=O)cc2)cc1	inactive
CCCCc1ccc(Cl)cc1	inactive
C=CCOC(=O)CCCCCCCC	inactive
CN1CCN(C(=O)C2CCCCC2)CC1	inactive
CC(O)CCCCn1c(=O)c2c(ncn2C)n(C)c1=O (stereo unspecified)	inactive

Notebook: CCC(C)SSC(C)CC (stereo unspecified) , viability change, negative = cytotoxic read as inactive

Notebook: `C[C@H]1COc2c(C3(N)CC3)c(F)cc3c(=O)c(C(=O)O)cn1c23` , viability change, negative = cytotoxic read as inactive

Notebook: `O=C[C@@H](O)[C@H](O)[C@H](O)CO` , viability change, negative = cytotoxic read as inactive

Notebook: `O=S(=O)(O)c1ccc(Cl)cc1` , viability change, negative = cytotoxic read as inactive

Notebook: `C/C=C(\C)C=O` , viability change, negative = cytotoxic read as inactive

Notebook: `CNC(=O)c1c(I)c(NC(C)=O)c(I)c(C(=O)O)c1I` , viability change, negative = cytotoxic read as inactive

Notebook: `N#CC1(N)CCCCC1` , viability change, negative = cytotoxic read as inactive

Notebook: O=C1CC2(CCCC2)CC(=O)N1CCNCC1COc2ccccc2O1 (stereo unspecified) , viability change, negative = cytotoxic read as inactive

====

# test.description: Caspase-3/7 induction in HepG2 cells by small molecules, qHTS assay (AID 1346978); also: % is scaled to controls: 0 for no effect and ±100 for the full control effect; nearly all actives have a fitted effect of over 15% in size
# study.conditions: HepG2 caspase-3/7 activation, Caspase-Glo luminescence, 17 h; series mostly up to 92.4 µM
Inconclusive results are not listed. The source made the active and inactive calls. Calls follow the shape of the dose curve; as a rule, active = well fitted activation curve with a large enough effect in the repeat runs; inconclusive = weak or mixed curves; inactive = flat fitted curve, though single readings scatter.
quantity.kind: caspase activation

compound	caspase activation
C[Si](C)(C)O[Si](O)(O)O	inactive
COC(=O)c1c(C)cc(O)c(C)c1O	inactive
Cc1cc(O)c(Cl)cc1C	inactive
CC[N+](C)(CC)CC	inactive
CN1C(CCl)Nc2cc(Cl)c(S(N)(=O)=O)cc2S1(=O)=O (configuration not stated)	inactive

Notebook: `CC(=O)OC/C=C(/C)CCC=C(C)C` , caspase activation read as inactive

Notebook: `C[C@@H]1CC[C@@]2(OC1)O[C@H]1C[C@H]3[C@@H]4CC[C@H]5C[C@@H](O)CC[C@]5(C)[C@H]4CC(=O)[C@]3(C)[C@H]1[C@@H]2C` , caspase activation read as 0.244% [at 8.39 µM] (inactive)

Notebook: C[C@@H]1NC(=O)[C@@H](N)CNC(=O)[C@H](C2CCNC(N)=N2)NC(=O)/C(=C/NC(N)=O)NC(=O)[C@H](CNC(=O)C[C@@H](N)CCCN)NC1=O (some centres not stated) , caspase activation read as -1.07% [at 0.349 µM] (inactive)

Notebook: CC(=O)OC1CCC(C(C)(C)C)CC1 (configuration not stated) , caspase activation read as inactive
